Target: ALK4 (h) (Homo sapiens)
Sequence (P36896 24-505): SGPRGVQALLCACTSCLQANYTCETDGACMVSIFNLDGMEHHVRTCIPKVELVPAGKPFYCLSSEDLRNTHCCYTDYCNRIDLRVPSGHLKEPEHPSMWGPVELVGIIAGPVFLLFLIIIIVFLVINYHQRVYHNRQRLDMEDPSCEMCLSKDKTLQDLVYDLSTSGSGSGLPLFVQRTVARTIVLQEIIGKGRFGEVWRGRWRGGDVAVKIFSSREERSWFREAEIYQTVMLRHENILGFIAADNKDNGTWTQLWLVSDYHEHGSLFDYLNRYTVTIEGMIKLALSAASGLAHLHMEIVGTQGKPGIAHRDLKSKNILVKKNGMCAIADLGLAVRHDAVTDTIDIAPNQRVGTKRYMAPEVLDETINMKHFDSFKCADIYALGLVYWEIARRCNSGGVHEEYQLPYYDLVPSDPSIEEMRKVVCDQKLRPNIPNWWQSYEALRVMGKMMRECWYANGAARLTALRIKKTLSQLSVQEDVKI
Assay: Kinase Profiling Assay
Type: biochemical
Settings: 100 μM

# Ordered Residues, % activity, %
data = [
    ("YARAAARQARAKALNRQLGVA (Mammalian) [MMI-0200]", 152),
    ("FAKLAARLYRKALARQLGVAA [MMI-0300]", 140),
    ("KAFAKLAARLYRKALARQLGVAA [MMI-0400]", 130),
    ("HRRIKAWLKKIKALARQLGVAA (Mammalian) [MMI-0500]", 81),
]
